# TESTED_SYSTEM: human recombinant HDAC 8 (Homo sapiens, UniProt Q9BY41)
# Sequence (Q9BY41 whole entry): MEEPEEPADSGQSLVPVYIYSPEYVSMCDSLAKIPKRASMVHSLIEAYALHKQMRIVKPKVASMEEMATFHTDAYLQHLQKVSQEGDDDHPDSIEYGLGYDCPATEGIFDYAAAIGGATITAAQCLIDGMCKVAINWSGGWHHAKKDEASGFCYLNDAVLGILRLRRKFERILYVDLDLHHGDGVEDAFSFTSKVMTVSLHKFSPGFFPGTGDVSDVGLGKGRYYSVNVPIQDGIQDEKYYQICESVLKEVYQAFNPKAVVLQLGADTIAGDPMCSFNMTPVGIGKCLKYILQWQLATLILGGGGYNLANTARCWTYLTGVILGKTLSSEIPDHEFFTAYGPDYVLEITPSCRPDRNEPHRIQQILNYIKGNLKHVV
# ASSAY_OVERVIEW: HDAC inhibition assay (Fluor de Lys), HDAC8
# CONDITION: inhibitor-protein incubation 0 hours, reaction 3 hours, 37° C.
ASSAY_METRIC: IC50

Input: Report IC50 for CNS(=O)(=O)c1ccc(CCCC(CCc2ccccc2)C(=O)O)cc1 (centres unmarked) [Example 13] please.
Output: 100 to 1000 µM

Input: // lookup IC50 for CC(CCc1ccccc1)C(=O)O (centres unmarked) [Example 3, 2-Methyl-4-phenylbutanoic acid]
Output: 100 to 1000 µM

Input: Dear colleague, I am looking for the recorded IC50 of the following molecule: CCc1ccc(CCC(CCCc2ccc(S(=O)(=O)Nc3ccccc3)cc2)C(=O)O)cc1 (centres unmarked) [Example 46]
Output: ≤ 10 µM

Input: Can you look up the measured IC50 of CCc1ccc(CCC(CCCc2ccccc2)C(=O)O)cc1 (centres unmarked) [Example 45] for me?
Output: ≤ 10 µM

Input: Entry under review: O=C(O)C(CCCc1ccccc1)CCc1cccc(O)c1 (centres unmarked) [Example 30] . Reported IC50?
Output: 100 to 1000 µM
